tested-on: GCN2 kinase (Homo sapiens, UniProt Q9P2K8)
Sequence (Q9P2K8 whole entry): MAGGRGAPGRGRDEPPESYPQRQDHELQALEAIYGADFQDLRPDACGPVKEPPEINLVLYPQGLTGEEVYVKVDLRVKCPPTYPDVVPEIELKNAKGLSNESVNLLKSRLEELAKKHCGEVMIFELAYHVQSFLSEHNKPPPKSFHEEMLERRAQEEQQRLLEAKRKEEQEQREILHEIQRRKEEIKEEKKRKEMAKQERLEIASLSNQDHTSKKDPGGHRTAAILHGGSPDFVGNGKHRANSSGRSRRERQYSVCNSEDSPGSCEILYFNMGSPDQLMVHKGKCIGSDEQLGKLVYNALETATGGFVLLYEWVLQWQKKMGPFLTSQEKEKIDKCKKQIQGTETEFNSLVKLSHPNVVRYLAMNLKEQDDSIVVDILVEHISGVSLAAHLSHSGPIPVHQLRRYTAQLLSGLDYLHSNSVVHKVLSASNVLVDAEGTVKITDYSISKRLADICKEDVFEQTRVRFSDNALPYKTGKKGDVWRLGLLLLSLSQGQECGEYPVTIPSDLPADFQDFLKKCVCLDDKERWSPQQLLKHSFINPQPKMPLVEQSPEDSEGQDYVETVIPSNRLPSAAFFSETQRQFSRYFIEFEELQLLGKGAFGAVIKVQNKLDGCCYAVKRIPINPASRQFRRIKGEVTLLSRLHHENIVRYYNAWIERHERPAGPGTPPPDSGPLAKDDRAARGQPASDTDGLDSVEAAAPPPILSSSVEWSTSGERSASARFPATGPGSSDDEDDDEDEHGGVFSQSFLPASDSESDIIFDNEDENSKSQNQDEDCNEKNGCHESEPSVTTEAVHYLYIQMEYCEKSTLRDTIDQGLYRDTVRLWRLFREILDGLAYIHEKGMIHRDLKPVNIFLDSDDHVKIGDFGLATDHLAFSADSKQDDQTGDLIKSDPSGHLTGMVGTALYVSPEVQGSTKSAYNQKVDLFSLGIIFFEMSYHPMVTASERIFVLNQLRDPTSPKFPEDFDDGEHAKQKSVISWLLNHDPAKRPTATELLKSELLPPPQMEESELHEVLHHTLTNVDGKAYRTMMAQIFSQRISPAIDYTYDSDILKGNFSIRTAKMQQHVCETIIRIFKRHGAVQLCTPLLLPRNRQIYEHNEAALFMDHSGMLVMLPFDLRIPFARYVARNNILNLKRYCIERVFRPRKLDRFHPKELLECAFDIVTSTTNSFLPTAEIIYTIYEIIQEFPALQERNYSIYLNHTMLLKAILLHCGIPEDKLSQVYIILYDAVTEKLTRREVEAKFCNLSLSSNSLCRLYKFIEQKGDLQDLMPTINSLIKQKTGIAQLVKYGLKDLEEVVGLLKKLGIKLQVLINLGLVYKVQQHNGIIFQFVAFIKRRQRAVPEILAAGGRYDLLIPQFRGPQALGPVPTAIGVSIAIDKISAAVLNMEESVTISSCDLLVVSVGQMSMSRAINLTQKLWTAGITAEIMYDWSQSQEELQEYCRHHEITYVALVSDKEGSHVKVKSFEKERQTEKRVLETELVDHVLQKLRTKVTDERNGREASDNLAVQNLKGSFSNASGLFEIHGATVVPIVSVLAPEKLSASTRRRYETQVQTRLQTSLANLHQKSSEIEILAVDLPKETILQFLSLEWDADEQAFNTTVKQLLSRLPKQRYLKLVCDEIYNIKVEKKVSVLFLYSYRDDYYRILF
assay-protocol: GCN2 enzyme inhibition assay (Transcreener ADP2 fluorescence polarization)
Type: biochemical
run-conditions: Enzyme activity for compounds of Formula IV; Ki(app), 280 μM ATP, 25° C.
Overview of recorded Ki for various compounds

Answered cases to consult:
Cc1[nH]ncc1C1CN(c2ccnc(-c3cnc4cnc(C(F)(F)F)cn34)n2)CC(C)N1 (single isomer, unassigned) [IV-459]    10 to 100 nM
CNC(=O)C1CCN(c2ccnc(-c3cnc4cnc(C(F)(F)F)cn34)n2)C1 (centres unmarked)    100 to 1000 nM
Cc1cc(N2CC(C)NC(c3cn[nH]c3)C2C)nc(-c2cnc3cnc(C(F)(F)F)cn23)n1 (centres unmarked) [IV-627]    < 10 nM
Oc1cccc(-c2ccnc(-c3cnc4cnc(C(F)F)cn34)n2)c1    100 to 1000 nM
Cc1[nH]ncc1C1CN(c2ccnc(-c3cnc4cnc(C(F)(F)F)cn34)n2)CC(C)N1 (single isomer, unassigned) [IV-458]    100 to 1000 nM

GET Ki where system = GCN2 kinase (Homo sapiens, UniProt Q9P2K8) and item = FC(F)(F)c1cn2c(-c3nccc(N4CCCC(c5nccs5)C4)n3)cnc2cn1 (centres unmarked)
10 to 100 nM

GET Ki where system = GCN2 kinase (Homo sapiens, UniProt Q9P2K8) and item = Cc1n[nH]cc1C1CCCN(c2ccnc(-c3cnc4cnc(C(F)F)cn34)n2)C1 (centres unmarked) [IV-97]
10 to 100 nM

GET Ki where system = GCN2 kinase (Homo sapiens, UniProt Q9P2K8) and item = "OCc1ccc(-c2ccnc(-c3cnc4cnc(C(F)F)cn34)n2)s1"
100 to 1000 nM
